target: Calcium/calmodulin-dependent protein kinase type II subunit alpha (Homo sapiens) (UniProt Q9UQM7)
Sequence (Q9UQM7 whole entry): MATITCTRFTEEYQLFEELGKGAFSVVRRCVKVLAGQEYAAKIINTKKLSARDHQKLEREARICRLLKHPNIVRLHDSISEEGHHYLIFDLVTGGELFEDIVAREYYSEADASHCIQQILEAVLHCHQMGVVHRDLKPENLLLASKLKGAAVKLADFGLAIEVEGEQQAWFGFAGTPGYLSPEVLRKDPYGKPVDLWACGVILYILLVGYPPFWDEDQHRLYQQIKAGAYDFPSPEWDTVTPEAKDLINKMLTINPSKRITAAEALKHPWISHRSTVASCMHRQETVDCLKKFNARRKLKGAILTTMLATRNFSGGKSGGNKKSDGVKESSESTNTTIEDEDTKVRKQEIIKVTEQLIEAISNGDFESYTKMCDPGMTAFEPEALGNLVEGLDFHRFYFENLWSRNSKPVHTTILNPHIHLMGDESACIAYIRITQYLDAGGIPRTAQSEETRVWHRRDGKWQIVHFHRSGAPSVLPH
// returns n unless ΔTm is strictly below 0.1 °C, in which case y

| molecule | group |
| --- | --- |
| CN(C)CCCn1cc(C2=C(c3c[nH]c4ccccc34)C(=O)NC2=O)c2ccccc21 [GF-109203] | n |
| CC(C)c1nn(-c2c(Cl)cccc2Cl)c2nc(Cc3ccc(OCCO)cc3)[nH]c(=O)c12 | n |
| COc1ccc(S(=O)(=O)N(CCO)c2ccccc2CN(C)C/C=C/c2ccc(Cl)cc2)cc1 | y |
| Cn1cc(C2=C(c3cn(CCCSC(=N)N)c4ccccc34)C(=O)NC2=O)c2ccccc21 | n |
| Cc1nc(Nc2ncc(C(=O)Nc3c(C)cccc3Cl)s2)cc(N2CCN(CCO)CC2)n1 | y |
| O=C1c2ccccc2-[n+]2ccc3c([nH]c4ccccc43)c21 [FASCAPLYSIN CHLORIDE] | y |
| CCN(CC)CCNC(=O)c1c(C)[nH]c(/C=C2\C(=O)Nc3ccc(F)cc32)c1C | n |
| NC1=NC(=O)/C(=C2\CCNC(=O)c3[nH]c(Br)cc32)N1 [HYMENIALDISINE] | n |
| COc1cc2c(cc1OC)-c1n[nH]c(Nc3cccc(F)c3)c1C2 | n |
| O=c1cc(-c2ccc(O)cc2)oc2cc(O)cc(O)c12 | n |

====

target: Calcium/calmodulin-dependent protein kinase type II subunit alpha (Homo sapiens) (UniProt Q9UQM7)
measure_name: ΔTm (°C)

| compound | unit_symbol | numeric_readout |
| --- | --- | --- |
| NC1=N/C(=C2/CCNC(=O)c3[nH]ccc32)C(=O)N1 [DEBROMOHYMENIALDISINE] | °C | 0.1 |
| C/C(O)=C(\C#N)C(=O)Nc1cc(Br)ccc1Br | °C | 0.1 |
| CCCCc1c(-c2ccc(O)cc2)[nH]c2nccnc12 [ALOISINE A] | °C | 0.1 |
